- Organism: Rattus norvegicus
- EXPERIMENT_DESCRIPTION: DrugMatrix - Regimen: Daily Repeat
- Assay type: toxicity, organism-based, Sprague-Dawley
- Design: regimen Daily Repeat, gender Male, age 6-8 weeks
- TEST_CONTEXT: in vivo, po, 0 mg/kg, 72 h, tissue Plasma, route oral GAVAGE, dose level Control, time 3 day, vehicle 100 % SALINE
QUANTITY_KIND: GLUCOSE (mg/dL)
Please reply with the bare figure in mg/dL and do not write the unit itself.

Entry CCN(CC)N=O , GLUCOSE reported as 182.83

Field GLUCOSE (entry O=[As][O-].[Na+] [SODIUM ARSENITE] ) reads 150.83

Consider CC(CN1c2ccccc2Sc2ccccc21)N(C)C (stereo not given) . Its measured GLUCOSE is 173.83

// GLUCOSE value for CCO : 150.83

# GLUCOSE of Cc1ccnc2c1NC(=O)c1cccnc1N2C1CC1 = 144

* * *

- Species: Rattus norvegicus
- EXPERIMENT_DESCRIPTION: DrugMatrix - Regimen: Daily Repeat
- Type: toxicity, organism-based, Sprague-Dawley
- Parameters: regimen Daily Repeat, gender Male, age 6-8 weeks
- TEST_CONTEXT: in vivo, po, 0 mg/kg, 72 h, tissue Blood, route oral GAVAGE, dose level Control, time 3 day, […]
QUANTITY_KIND: MEAN CORPUSCULAR VOLUME (fL)
Your answer is read as fL, so omit the unit and give the number.

Record summary for O=C(O)COC(=O)Cc1ccccc1Nc1c(Cl)cccc1Cl : reported MEAN CORPUSCULAR VOLUME = 62.75

MEAN CORPUSCULAR VOLUME recorded for this compound, CO[C@H]1O[C@@H]2O[C@@]3(C)CC[C@H]4[C@H](C)CC[C@@H]([C@H]1C)[C@@]24OO3 , is 62.52

For record Oc1ncnc2[nH]ncc12 the listed MEAN CORPUSCULAR VOLUME is 61.23

// recorded MEAN CORPUSCULAR VOLUME for CS(=O)(=O)c1ccc(C2=C(c3ccccc3)C(=O)OC2)cc1 : 63.03

// MEAN CORPUSCULAR VOLUME lookup, compound = COc1ccccc1OCCNCC(O)COc1cccc2[nH]c3ccccc3c12 (stereo not given) , result: 62.75

* * *

- Species: Rattus norvegicus
- EXPERIMENT_DESCRIPTION: DrugMatrix - Regimen: Daily Repeat
- Assay type: toxicity, organism-based, Sprague-Dawley
- Design: regimen Daily Repeat, gender Male, age 6-8 weeks
- TEST_CONTEXT: in vivo, po, 0 mg/kg, 120 h, tissue Blood, route oral GAVAGE, dose level Control, time 5 day, vehicle .5 % CMC
QUANTITY_KIND: MEAN CORPUSCULAR HEMOGLOBIN CONCENTRATION
Remember to follow the number with its unit.

NC(=O)CN1CCCC1=O has a reported MEAN CORPUSCULAR HEMOGLOBIN CONCENTRATION of 40.35 G/DL

Measured MEAN CORPUSCULAR HEMOGLOBIN CONCENTRATION of COc1cc(NC(C)CCCN)c2ncccc2c1 (stereo not given) [PRIMAQUINE] : 39.62 G/DL

Entry under test: CCN1CCN(c2cc3c(cc2F)c(=O)c(C(=O)O)cn3C2CC2)CC1 [ENROFLOXACIN] . Its MEAN CORPUSCULAR HEMOGLOBIN CONCENTRATION was 37.1 G/DL

The recorded MEAN CORPUSCULAR HEMOGLOBIN CONCENTRATION for Nc1ccc(C(=O)O)c(O)c1 [AMINOSALICYLIC ACID] is 39.97 G/DL

Summary for this molecule, COc1ccc(Cl)cc1C(=O)NCCc1ccc(S(=O)(=O)NC(=O)NC2CCCCC2)cc1 [GLYBURIDE] : MEAN CORPUSCULAR HEMOGLOBIN CONCENTRATION is 39.97 G/DL

* * *

- Organism: Rattus norvegicus
- EXPERIMENT_DESCRIPTION: DrugMatrix - Regimen: Daily Repeat
- Format: toxicity, organism-based, Sprague-Dawley
- Parameters: regimen Daily Repeat, gender Male, age 6-8 weeks
- TEST_CONTEXT: in vivo, iv, 0 mg/kg, 72 h, tissue Blood, dose level Control, time 3 day, vehicle 100 % SALINE
QUANTITY_KIND: MEAN CORPUSCULAR HEMOGLOBIN
Report field: quantity (unit follows the number).

GET /value?item= CC(=O)[C@]1(O)Cc2c(O)c3c(c(O)c2[C@@H](O[C@H]2C[C@H](N)[C@H](O)[C@H](C)O2)C1)C(=O)c1ccccc1C3=O &field=MEAN CORPUSCULAR HEMOGLOBIN returns 23.17 pg

Quick note, MEAN CORPUSCULAR HEMOGLOBIN for Cc1c(N)nc([C@H](CC(N)=O)NC[C@H](N)C(N)=O)nc1C(=O)N[C@H](C(=O)N[C@H](C)[C@@H](O)[C@H](C)C(=O)N[C@H](C(=O)NCCc1nc(-c2nc(C(=O)NCCC[S+](C)C)cs2)cs1)[C@@H](C)O)[C@@H](O[C@@H]1O[C@@H](CO)[C@@H](O)[C@H](O)[C@@H]1O[C@H]1O[C@H](CO)[C@@H](O)[C@H](OC(N)=O)[C@@H]1O)c1c[nH]cn1.[Br-] landed at 24.98 pg

Notebook: COC(=O)C[C@](O)(CCC(C)(C)O)C(=O)O[C@@H]1C(OC)=C[C@]23CCCN2CCc2cc4c(cc2[C@H]13)OCO4 , MEAN CORPUSCULAR HEMOGLOBIN read as 24.17 pg

Measured MEAN CORPUSCULAR HEMOGLOBIN of CO[C@@]12[C@H](COC(N)=O)C3=C(C(=O)C(C)=C(N)C3=O)N1C[C@@H]1N[C@@H]12 : 24.03 pg

* * *

Exercise: state measured LIPASE for each of the molecules provided.
- Organism: Rattus norvegicus
- EXPERIMENT_DESCRIPTION: DrugMatrix - Regimen: Daily Repeat
- Type: toxicity, organism-based, Sprague-Dawley
- Set-up: regimen Daily Repeat, gender Male, age 6-8 weeks
- TEST_CONTEXT: in vivo, po, 0 mg/kg, 72 h, tissue Plasma, route oral GAVAGE, dose level Control, time 3 day, vehicle 100 % SALINE
Answer format: numeric, u/L implied, no suffix.

Noted for CCO : its LIPASE reads 10.83

Lab note: measured LIPASE of Cc1ccnc2c1NC(=O)c1cccnc1N2C1CC1 was 9.83

So, CC(CN1c2ccccc2Sc2ccccc21)N(C)C (stereo not given) ? Its LIPASE was 11

GET /value?item= O=[As][O-].[Na+] [SODIUM ARSENITE] &field=LIPASE returns 10.83

Record CCN(CC)N=O , field LIPASE: 9.83

* * *

- Species on record: Rattus norvegicus
- EXPERIMENT_DESCRIPTION: DrugMatrix - Regimen: Daily Repeat
- Format: toxicity, organism-based, Sprague-Dawley
- Parameters: regimen Daily Repeat, gender Male, age 6-8 weeks
- TEST_CONTEXT: in vivo, po, 0 mg/kg, 72 h, tissue Blood, route oral GAVAGE, dose level Control, time 3 day, […]
Cut-off 1000 x10E3/uL on PLATELET COUNT, inclusive. At or above means 1; below means -1.

Query string: Is reported PLATELET COUNT greater than or equal to 1000 x10E3/uL here: CC(C)(c1ccc(O)cc1)c1ccc(O)cc1
Result string: 1

Query string: Confirm if PLATELET COUNT reported for the molecule O=C(Nc1ccc(Cl)c(Cl)c1)c1cc(Cl)cc(Cl)c1O [3,3',4',5-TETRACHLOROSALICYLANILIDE] is 1000 x10E3/uL or above.
Result string: 1

Query string: Confirm if PLATELET COUNT reported for the molecule CCC(C)(C)C(=O)O[C@H]1C[C@@H](C)C=C2C=C[C@H](C)[C@H](CC[C@@H]3C[C@@H](O)CC(=O)O3)[C@H]21 is 1000 x10E3/uL or above.
Result string: 1

Query string: I'd appreciate it if you could say whether CCOC(=O)C1=C(C)NC(C)=C(C(=O)OCC)C1c1ccccc1/C=C/C(=O)OC(C)(C)C has PLATELET COUNT at least equal to 1000 x10E3/uL.
Result string: -1

Query string: Record CO[C@H]1O[C@@H]2O[C@@]3(C)CC[C@H]4[C@H](C)CC[C@@H]([C@H]1C)[C@@]24OO3 ; criterion: PLATELET COUNT no lower than 1000 x10E3/uL. Met?
Result string: 1

Query string: Given Cc1cccc(C)c1NC(=O)C(C)N (centres undefined) [TOCAINIDE] , state whether its PLATELET COUNT is at least 1000 x10E3/uL.
Result string: 1
